All values here come from patent US4251563A.

# method.summary: Equilibrium oil-water solubility and phase distribution coefficient
# Assay type: physicochemical
# condition.label: oil plus water phase
endpoint.name: Total Solubility (ppm)
Please respond with the number in ppm and leave the unit unwritten.

// Total Solubility lookup, key: CCCCCCCCCCCC(=O)OC[C@@H](O)[C@H]1OC(=O)C(O)=C1O [erythorbyl laurate]
700

// next record CCCCCCCCCCCCCCCC(=O)OC[C@H](O)[C@H]1OC(=O)C(O)=C1O [ascorbyl palmitate, reference compound]
175

// next record CCCCCCCCCC(=O)OC[C@@H](O)[C@H]1OC(=O)C(O)=C1O [erythorbyl caprate]
4000

// next record CCCCCCCCCC(=O)OC[C@H](O)[C@H]1OC(=O)C(O)=C1O [ascorbyl caprate, reference compound]
5400

// next record CCCCCCCCCCCC(=O)OC[C@H](O)[C@H]1OC(=O)C(O)=C1O [ascorbyl laurate]
390
